Measured MIC of individual entries
Test system: Staphylococcus aureus NCTC 13373 (mecA-positive; methicillin-resistant)
ASSAY EXPLANATION: In vitro antibacterial activity, MIC (UCL School of Pharmacy assay), MRSA
Type: cell-based
CONDITION NOTES: Staphylococcus aureus, UCL; read-out: MRSA MIC (UCL)

COMPOUND: Cc1ccc2nc(-c3ccccn3)c(NCc3ccccc3)n2c1 [OSA_000842]
TEST READOUT: MIC
ENDPOINT RESULT: 8 µg/mL

Quick note, MIC for c1ccc(-c2nc3n(c2-c2ccc4cccnc4c2)CCC3)nc1 [OSA_000833] landed at > 32 µg/mL

Quick note, MIC for COc1ccc(-c2c(-c3ccccn3)nc3n2CCC3)cc1OC [OSA_000820] landed at > 32 µg/mL

Reported MIC of COc1cccn2c(N(C)c3ccc(F)cc3)c(-c3ccccn3)nc12 [OSA_001001] : 16 µg/mL

Per the records, this compound ( N#Cc1ccc(-c2c(-c3ccccn3)nc3n2CCC3)cc1 [OSA_000975] ) has MIC equal to 4 µg/mL

Short answer for CC(=O)c1ccc(-c2c(-c3ccccn3)nc3n2CCC3)cc1 [OSA_000973] : MIC was > 32 µg/mL

Note to self: MIC recorded for N#CCc1ccc(-n2c(-c3ccccn3)nc3ccccc32)cc1 [OSA_000996] was > 32 µg/mL

For this compound ( COc1ccn2c(Nc3ccccc3F)c(-c3cnn(C)c3)nc2c1 [OSA_000855] ), measured MIC is > 32 µg/mL

COc1ccc2nc(-c3c[nH]cn3)c(Nc3ccc4c(c3)OCCO4)n2c1 [OSA_000867] yielded MIC of > 32 µg/mL

The value of MIC measured for the compound c1ccc(Cn2c(-c3ccccn3)nc3ccccc32)cc1 [OSA_000993] turned out to be > 32 µg/mL

* * *

ASSAY EXPLANATION: In vitro metabolic stability, human liver microsomes (Monash)
Format: in vitro ADME
CONDITION NOTES: NADPH, read-out: CLint, in vitro
TEST READOUT: microsomal CLint at 1 µM (µL/min/mg)

(P) c1ccc(-c2nc3n(c2-c2ccc4c(c2)OCO4)CCC3)nc1
(Q) c1ccc(-c2nc3n(c2-c2ccc4sccc4c2)CCC3)nc1
Select one. Lower microsomal CLint at 1 µM: P or Q Answer by quoting the chosen item's label.
P

* * *

ASSAY EXPLANATION: Human liver microsome intrinsic clearance
Format: in vitro ADME
CONDITION NOTES: human liver microsomes, NEU
TEST READOUT: HLM CLint (NEU)

Answered examples (2):
MOLECULE: C[S+]([O-])c1ccc(-c2c(-c3ccccn3)nc3n2CCC3)cc1 (stereo not drawn)
HLM CLint (NEU): <3 uL/min/mg protein
--
MOLECULE: CS(=O)(=O)c1ccc(-c2c(-c3ccccn3)nc3n2CCC3)cc1
HLM CLint (NEU): <3 uL/min/mg protein

Reported HLM CLint (NEU) of CN(C)C(=O)c1ccc(-c2c(-c3ccccn3)nc3n2CCC3)cc1 : <3 uL/min/mg protein

* * *

ASSAY EXPLANATION: Aqueous solubility
Format: physicochemical
CONDITION NOTES: NEU
TEST READOUT: Aqueous Solubility (NEU) (µM)

(a) N#Cc1ccc(-c2c(-c3ccccn3)nc3n2CCC3)cc1
(b) CN(C)C(=O)c1ccc(-c2c(-c3ccccn3)nc3n2CCC3)cc1
(c) CS(=O)(=O)c1ccc(-c2c(-c3ccccn3)nc3n2CCC3)cc1
(d) CCCN(c1ccc(F)cc1)c1c(-c2ccccn2)nc2ccccn12
Sort key: Aqueous Solubility (NEU). Order: high to low. Scope: items listed above. Please, when replying, give the labels in the order that was requested.
b, c, a, d
